Measured pIC50, listed per entry for reference.
# Test target: HLA-B*07:02
# Measurement notes: IEDB peptide-MHC binding, purified MHC/competitive/fluorescence; bounds were set here for any values at or beyond the usual limits of such assays
# Run conditions: source organism: Homo sapiens
Kindly note that pIC50 refers to -log10 of the concentration in mol/L and answer with the value alone.

Worked set:
Ordered residues | Readout number
APKRPPSAF | 6.75
TPQSNRPVM | 6.33

## Task For the sequence shown here, "GPRTAALGLL" , give the reported pIC50.
## Result 6.59

## Task Quick check: pIC50 of "APAYSRAL" ?
## Result 6.67

## Task Param item = "SPNQARAQAAL" ; retrieve measured pIC50.
## Result 6.03

## Task I have this sequence here, "RPYSNVSNL" , and I need its recorded pIC50.
## Result 6.64

## Task Tell me the measured pIC50 of "LPTSHPKIV" , please.
## Result 5.45

## Task State the recorded pIC50 for this entry: "AARPATSTL"
## Result 6.68

## Task I am curious: what pIC50 value has been reported for "NPNQNKNVAL" ?
## Result 5.80
